# Test system: DU-145 prostate
# PROTOCOL DETAILS: NCI-60 one-dose screen, 48 h (100 = growth as untreated, 0 = no growth, -100 = all killed)
# TEST SETTINGS: 10 µM unless noted
The panel holds about 83,000 compounds, 20% with a hit somewhere; the sample as a whole holds those more often. Active and inactive are the calls of the source. The calls were made as follows: active = growth percent below 10; inactive = the rest.
OBSERVED PROPERTY: growth

Challenge: Item "O=C(CC(=O)Nc1cccc(C(=O)O)c1)Nc1cccc(C(=O)O)c1" has what recorded growth?
Response given: 121% (inactive)

Challenge: GET /values?readout=growth&item= COC(=O)C(Cc1ccccc1)NC(=O)c1ccc(NC(=O)c2[nH]c(C)c(Cl)c2Cl)c(OC(C)C)c1 (stereo not given)
Response given: 77.6% (inactive)

Challenge: Requested read-out: growth. Entry: "CN1CCN(CCOc2ccc(-c3cnc4c(-c5ccc(F)cc5)cnn4c3)cc2)CC1"
Response given: 42.2% (inactive)

Challenge: // growth lookup, key: "COC(=O)c1c2c(c(C)[n+]([O-])c1C)C(=O)C(NCc1cccc(Cl)c1)=CC2=O"
Response given: 38.3% (inactive)

Challenge: Report growth for "CO[C@H]1CC(=O)n2c3ccccc3c3c4c(c5c6ccccc6n1c5c32)C(=O)NC4=O" please.
Response given: 42.3% (inactive)

Challenge: Fill in: growth of "CN(CCC(=O)c1ccccc1)CCC(=O)c1ccccc1" is ___
Response given: 104% (inactive)

Challenge: What does the data say about its growth? Entry: "CCNc1ccc(-c2nc3ccccc3n3cccc23)cc1"
Response given: 86.7% (inactive)

Challenge: Would you mind telling me what growth value was observed for "C#CCOc1cccc(-c2ncnc3cc(NC(=O)C=C)ccc23)c1" ?
Response given: 15.6% (inactive)

Challenge: Reported growth for "COc1ccc(C(=S)N2CCN(c3ccc(Cl)cc3)CC2)cc1" : what is it?
Response given: 113% (inactive)

Challenge: Given the compound "Cc1ncc(C(=O)Nc2ccc(CN3CCN(C)CC3)c(C(F)(F)F)c2)cc1C#Cc1cnc(N)c2ncccc12" , what is its reported growth?
Response given: 34% (inactive)

Challenge: Could you share which growth value was measured for "Fc1cccc(-c2ccc3c(c2)C2(CCNCC2)CN3)c1" ?
Response given: 105% (inactive)

Challenge: Look up growth: "CCOc1c(OC)cc2c(c1O)C(=O)N[C@@H]1[C@@H](O)[C@@H](O)[C@H](O)C[C@@H]21"
Response given: 109% (inactive)

Challenge: Could you share which growth value was measured for "FC(F)(F)c1ccc(Cn2cc(CSc3nc4ccccc4s3)nn2)cc1" ?
Response given: 108% (inactive)

Challenge: // query growth value for entry COC(=O)N1CC(Oc2ccccn2)C2CC1c1ccccc1O2 (stereo not given)
Response given: 115% (inactive)

Challenge: Quick check: growth of "CCN(CC)CCCN1C(=O)c2c(c(C)c3c(oc4ccc(O)cc43)c2C)C1=O" ?
Response given: -58.8% (active)

Challenge: Please give the measured growth for this compound: "CCCCNc1cc(-c2cn[nH]c2-c2cc(C)cc(OC)c2)nc(-c2cccnc2)n1"
Response given: 93.6% (inactive)

Challenge: Item under review: CCCCCN(CCCCC)CC(O)c1cc(C)c2ccc3cc(C(C)C)ccc3c2c1 (stereo not given) . Reported growth?
Response given: -77.1% (active)

Challenge: Item under review: "COc1ccc(Cn2cc(C(=O)N=Nc3c(O)[nH]c4c(C)cccc34)nn2)cc1" . Reported growth?
Response given: 60.4% (inactive)

Challenge: // lookup growth for COc1ccc(C2=NN(C(C)=O)C(c3cn(-c4ccccc4)nc3-c3ccc(Cl)cc3)C2)cc1 (stereo not given)
Response given: 17.4% (inactive)

Challenge: Param item = "Cc1ccc(Cl)cc1NC(=O)c1sc2nc3c(cc2c1N)C(=O)CCC3" ; retrieve measured growth.
Response given: 77.4% (inactive)

Challenge: Report growth for CCC1S/C(=N\N=C(\C)c2cc3cc(Cl)ccc3o2)N(c2ccccc2)C1=O (stereo not given) please.
Response given: 131% (inactive)

Challenge: Endpoint output: growth of "CC(=O)O[C@H]1C[C@@H]2C(C)(C)C(=O)CC[C@@]2(C)c2ccc(C(C)C)cc21" . Value?
Response given: 102% (inactive)

Challenge: Please report the recorded growth for "NS(=O)(=O)c1ccc(NC(=O)/C(=C\c2ccc(Cl)cc2Cl)NC(=O)c2ccccc2)cc1" .
Response given: 109% (inactive)

Challenge: Given the compound "COc1cnc2c(c1)C(=O)c1c-2n(CCCCl)c(=O)c2ccncc12" , what is its reported growth?
Response given: 76% (inactive)

Challenge: Requested field: growth. Item: CC(C)=CCNc1ncnc2c1ncn2C1OC(CO)C(O)C1O (stereo not given)
Response given: -89.4% [1 mM] (active)

---

# Tested on: SNB-75 CNS
# PROTOCOL DETAILS: NCI-60 one-dose screen, 48 h
# TEST SETTINGS: 10 µM unless noted
Compounds without any hit were thinned out: in the full panel of roughly 83,000, 20% have a hit. Calls of active or inactive are those of the source. Rule for the calls: active = growth percent below 10; inactive = the rest.
Allowed answers: Y = active, N = inactive

Challenge: Query: recorded result category for CCOC(=O)CC1CSC(Nc2ccccc2)=N1 (stereo not given) in this test
Response given: N

Challenge: Answer briefly: the call reported for "CN(C)CCCNC(=O)c1cncnc1Nc1ccc(OCc2cccc(F)c2)c(Cl)c1" in this assay.
Response given: Y

Challenge: Record request — test call for "COc1ccc(/C=C(/C(=O)n2cnnn2)c2cc(OC)c(OC)c(OC)c2)cc1"
Response given: N

Challenge: Recorded test call requested for "CNC1=CC(=O)c2c(C(=O)OC)c(C)[n+]([O-])c(C)c2C1=O"
Response given: N

Challenge: Each compound tested received a call. Report the one for "C=CC(=O)Nc1ccc(Oc2nccc(Nc3nnc(-c4ccc(C)cc4)s3)n2)cc1" .
Response given: N

---

# Tested on: HCT-15 colon
# PROTOCOL DETAILS: NCI-60 one-dose screen, 48 h (100 = growth as untreated, 0 = no growth, -100 = all killed)
# TEST SETTINGS: 10 µM unless noted
This is part of a sample that, as a whole, favours compounds with a hit. Of some 83,000 tested, about 20% had one in any assay.
OBSERVED PROPERTY: growth (%)
Form entry: value (%) — number only.

Challenge: What value of growth has been recorded for this entry: "C=C1C(=O)O[C@H]2[C@H]1CC/C(COC(=O)c1cc3cc(Cl)ccc3[nH]1)=C\CC[C@@]1(C)O[C@@H]21"
Response given: -61.1

Challenge: // growth lookup, key: "O=C(Nc1cc(Cl)ccc1O)c1cccc(Nc2ccnc(C(F)(F)F)c2)c1"
Response given: 42.9

Challenge: Value lookup for growth; key = "Cn1c(=O)c2[nH]c(SCC(=O)Nc3ccc(C(=O)/C=C/c4ccccc4Cl)cc3)nc2n(C)c1=O"
Response given: 92.5

Challenge: Endpoint output: growth of CCN1C(=O)N(CC)C2C1N=C(SCc1ccc(Cl)cc1)N2/N=C/C=C/c1ccccc1OC (stereo not given) . Value?
Response given: 31.4

Challenge: I am curious: what growth value has been reported for "COc1cc(NC(=O)c2cncnc2Nc2ccc3c(ccn3Cc3ccccn3)c2)cc(OC)c1" ?
Response given: 30.7

---

# Test system: SF-539 CNS
# PROTOCOL DETAILS: NCI-60 one-dose screen, 48 h
# TEST SETTINGS: 10 µM unless noted
Compounds without any hit were thinned out: in the full panel of roughly 83,000, 20% have a hit. Active and inactive are the calls of the source. How the source made its calls: active means growth percent below 10; inactive means the rest.
Lab note: assign the record to one of 1 (active), -1 (inactive)

Challenge: Lab log entry: "COc1ccc(-c2nc(/C=C3\C(=O)N(C)c4ccccc43)c3ccccn23)cc1" — outcome as called in the assay?
Response given: -1

Challenge: Which outcome did this test record for the compound "CN1CCN(c2ccc3nc4c(nc3c2C(F)(F)F)C(=O)c2ncccc2C4=O)CC1" ?
Response given: 1

Challenge: In this assay, the call recorded for "Cc1ccc(-c2nc(-c3cn(C)c4ncccc34)cs2)cc1" was what?
Response given: 1

Challenge: What is the recorded call for this compound in the test? "Cc1ccc(CNc2c3ccccc3nc3ccccc23)cc1"
Response given: -1

Challenge: // outcome(item) with item = "C=C1C(=O)O[C@H]2[C@H]1CC/C(COC(=O)c1cc3cc(Cl)ccc3[nH]1)=C\CC[C@@]1(C)O[C@@H]21"
Response given: 1

Challenge: Write down the call the test reported for this compound. Item: "COC(=O)CC[C@@H]1O[C@@H](c2ccc(F)cc2)[C@@H](O)[C@H]1O"
Response given: -1

Challenge: Name the outcome recorded for "CC[C@]12C=CCN3CC[C@@]4(c5ccc(OC)cc5N(C)[C@H]4[C@@](O)(C(=O)OC)[C@@H]1OC(=O)CCC[P+](c1ccccc1)(c1ccccc1)c1ccccc1)[C@@H]32" in the assay.
Response given: -1

Challenge: Recorded test call requested for "O=C(O)c1ccc(-c2ccc(/C=N/Nc3nc(Nc4ccccc4)nc(N4CCCCC4)n3)o2)cc1"
Response given: -1

Challenge: Outcome? "COc1cc(NC(=O)c2cncnc2Nc2ccc3c(ccn3Cc3ccccn3)c2)cc(OC)c1"
Response given: -1

Challenge: Could you please tell me the result logged for "CC1(C)C(N)=Nc2cc(OCCCN3Cc4ccccc4C3)c(OCC3CC3)cc21" in this assay?
Response given: -1

Challenge: Identify the outcome logged in this assay for the compound shown: "CCOC(=O)C(Cc1ccc(OC)cc1)C(=O)OCC"
Response given: -1

Challenge: Just curious, what result did CCN1C(=O)N(CC)C2Nn3c(s/c(=C\c4ccccc4Br)c3=O)=NC21 (stereo unspecified) get here?
Response given: 1

Challenge: Hello, I am checking results. What call was entered for "O=C(N=Nc1c(O)[nH]c2ccccc12)Nc1ccc(F)cc1" ?
Response given: -1

Challenge: Test call, this compound: "C[C@H](C(=O)N(CCc1ccc(Cl)c(Cl)c1)Cc1cncs1)[C@@H]1CC[C@H](C[C@H](C)n2cc(CN3CCC(c4ccc(Cl)cc4)CC3)nn2)O1"
Response given: -1

Challenge: Entry "O=C1/C(=C/c2ccccn2)NC(=S)N1c1ccccc1Cl" : call = ?
Response given: -1

Challenge: Hello, I am checking results. What call was entered for COc1ccc(C2=CN3CC=CC3CC2=O)cc1 (stereo unspecified) ?
Response given: -1

Challenge: So what was the verdict on C=C(CNCCO)[C@@H]1CC[C@]2(CO)CC[C@]3(C)[C@H](CC[C@@H]4[C@@]5(C)CCC(N)C(C)(C)[C@@H]5CC[C@]43C)[C@@H]12 (stereo partly specified) in this test?
Response given: 1

Challenge: Hi, do you know how CCN1C(=O)N(CC)C2C1NN=c1s/c(=C\c3ccc(C(F)(F)F)cc3)c(=O)n12 (stereo unspecified) came out in this test?
Response given: 1

Challenge: Outcome logged for "COC(=O)/C=C1/SC(=Nc2ccc([N+](=O)[O-])cc2)N(CCc2c[nH]c3ccc(O)cc23)C1=O" in this assay:
Response given: -1

Challenge: For "CCN1CCN(C(=O)[C@]23CC[C@@H](C)[C@H](C)[C@@H]2C2=CC[C@@H]4[C@@]5(C)C/C(=C/c6cccnc6)C(=O)C(C)(C)[C@@H]5CC[C@@]4(C)[C@]2(C)CC3)CC1" , what call appears in the results of this test?
Response given: 1

Challenge: What did this assay record as the result for "COc1ccc2[nH]cc(-c3nc(-c4c[nH]c5c(Cl)nccc45)cs3)c2c1" ?
Response given: -1

Challenge: Dear colleague, could you share the recorded outcome for "CN(C)CCCNC(=O)c1cncnc1Nc1ccc(OCc2cccc(F)c2)c(Cl)c1" when you have a moment?
Response given: 1

Challenge: # fetch the recorded call for "O=C(Cc1ccccc1)Nc1cccc(N=Cc2ccccc2O)c1" here
Response given: -1

Challenge: Hi, do you know how N#CC1CCc2c(c(-c3ccc4nc(N)sc4c3)nc3ccc4[nH]ncc4c23)C1 (stereo unspecified) came out in this test?
Response given: 1

Challenge: // param item: "CCCCCCCCCCCCCCCCCCOc1ccccc1CC(=O)NCC[N+]1(C)CCCCC1" ; yields the recorded call
Response given: -1

Challenge: State the result this test recorded for "COc1ccc(/C=C/C(=O)c2cc3c(N)c(C(=O)Nc4cccc(Cl)c4C)sc3nc2C)cc1" .
Response given: 1

Challenge: Assay result, entry "Cc1nc2ccccc2c(/C=C/c2ccccc2)c1C(=O)/C=C/c1ccccc1" — outcome?
Response given: 1

Challenge: Could you kindly confirm the outcome this assay logged for "O=C(O)/C=C/C(=O)Nc1cccc(Cn2nnc3cc(Cl)c(Cl)cc32)c1" ?
Response given: -1

Challenge: Status in this test for "CC(C)(C)n1cc(-c2ccnc(NCCCNS(=O)(=O)c3cccc4ccccc34)c2)c(-c2cccc(F)c2)n1" ?
Response given: -1

Challenge: Dear colleague, could you share the recorded outcome for "CN(CCCNC(=O)CCOCCOCCOCCNC(=O)Cc1ccc2ccc3cccc4ccc1c2c34)CCCNc1cc(-c2ccc3ccccc3c2)nc2ccccc12" when you have a moment?
Response given: 1

Challenge: Please state the recorded outcome for this compound: "Cc1cc(Nc2ccc(C(=O)N3CCCC3)cc2)nc(NCCCNc2ccnc3cc(Cl)ccc23)n1"
Response given: -1

Challenge: Check the results log: what was the call for "CCOC(=O)/C=C1\S/C(=N\Nc2cc(=O)[nH]c3ccccc23)N(c2ccccc2)C1=O" ?
Response given: -1

Challenge: // return assay outcome for "CCCCNC(=O)Oc1ccc(/C(=C(/C)Cc2ccc(OC)cc2)c2ccc(OCCN3CCCCCC3)cc2)cc1"
Response given: -1

Challenge: Recorded test outcome, item "COc1cccc(Nc2ncnc3cc(NC(=O)CCl)ccc23)c1"
Response given: 1

Challenge: Outcome logged for "CCNC(=O)Oc1ccc(/C(=C(/C)Cc2ccc(OC)cc2)c2ccc(OCCN3CCCCC3)cc2)cc1" in this assay:
Response given: -1

Challenge: What call does the record list for CCO/C=N/C1=C(C#N)C(c2ccc(F)cc2)c2sc3c(F)cccc3c2O1 (stereo unspecified) ?
Response given: -1
